Assay: Toxicity liver stage against HepG2, at 10uM
Type: cell-based
Parameters: test concentration 10 uM, cell line HepG2-A16-CD81EGFP
Settings: human, HepG2-A16-CD81EGFP cells; read-out: INHIBITION
QUANTITY: cytotoxicity at 10 µM
Include the unit after the number when you answer.

Previously resolved entries follow.
[[record]]
molecule = "O=C(c1cc(-n2cccc2)ccc1Cl)N1CCC2(CC1)OCCO2"
test_value = "-7.58%"

[[record]]
molecule = "COCCN1CCN(CC2CCCCO2)CC1 (stereo not drawn)"
test_value = "6.29%"

[[record]]
molecule = "CCCS(=O)(=O)N1C[C@@H]2C[C@H](C(=O)N(C)C)[C@H](C1)O2"
test_value = "-74%"

[[record]]
molecule = "O=C1C(Sc2nc(=O)ccn2C2CC2)CCN1c1ccccc1F (stereo not drawn)"
test_value = "1.73%"


Hey, can you go through the list below and give me cytotoxicity at 10 µM for every item?
1. CCc1ncnc(N2CCOCC2CCO)c1F (stereo not drawn)
2. CCN1CCc2cc(C(=O)N(C)C)c(NCC3CC3)nc2CC1
3. Cn1c(CN2CCOC(CCc3ccncn3)C2)nc2ccccc21 (stereo not drawn)
4. COCC(=O)N1Cc2c(-c3cccc(C)c3)nc(N)nc2C1C (stereo not drawn)
5. CNc1cncc(C2CCCN2Cc2cccc(C)n2)n1 (stereo not drawn)
6. N#Cc1c(N)nc2c(c1-c1c[nH]nc1C1CCCCC1)COCC2
7. CC(Cn1cncn1)NC(=O)NCc1csc(N(C)C)n1 (stereo not drawn)

1. -2.56%
2. 4.65%
3. -4.42%
4. -0.607%
5. -8.3%
6. 6.75%
7. 8.42%

Hey, can you go through the list below and give me cytotoxicity at 10 µM for every item?
1. CC(=O)N1[C@H](CN(C)C)C[C@@H]2CN(C(=O)c3cccn3C)CC[C@@H]21
2. CCc1cc(C(=O)NCC2CCN(Cc3cccc(C#N)c3)C2)on1 (stereo not drawn)
3. Cc1ccc([C@@]2(O)CC[C@@H]3CN(S(=O)(=O)c4cn(C)nc4C)C[C@@H]32)cc1
4. CCOc1ncccc1NC(=O)c1cc(C)c(C)s1
5. COc1ccccc1OC1CN(C(=O)C(c2ccccc2F)N(C)C)C1 (stereo not drawn)
6. NC(=O)c1cc(CC2CCCN(Cc3cnccn3)CC2)ncn1 (stereo not drawn)
7. CC1=CC(C)(C)N(CN2C(=O)c3ccccc3C2=O)c2ccc(C)cc21

2.53%
4.98%
-16.2%
-2.96%
3.91%
-3.97%
-3.49%

Hey, can you go through the list below and give me cytotoxicity at 10 µM for every item?
1. CC1(C)[C@@H]2CC=C(CN3CCCn4nc(CCC(=O)O)cc4C3)[C@H]1C2
2. CC(C)CN1CCC(NC(=O)NCCC(=O)NCc2ccccc2)CC1
3. CSc1ccc(OCCN2CCC(n3cncn3)CC2)cc1
4. O=C(Cc1ccsc1)N1CCC[C@@H]1Cn1c(=O)oc2ccccc21
5. CC1(C)CN(CC(F)(F)F)CCN1CC(=O)NC1CC1

["-40.2%", "1.64%", "-12.6%", "4.53%", "12.5%"]

---

I'd appreciate it if you could supply cytotoxicity at 10 µM values for the items below.
Experiment: Toxicity liver stage against HepG2, at 10uM
Type: cell-based
Set-up: test concentration 10 uM, cell line HepG2-A16-CD81EGFP
Settings: human, HepG2-A16-CD81EGFP cells; read-out: INHIBITION
Answers are plain numbers, in %.

[[record]]
molecule = "CS(=O)(=O)N1CCOCC2(CCN(C(=O)c3ccncc3)CC2)C1"
test_value = 2.78


Hey, can you go through the list below and give me cytotoxicity at 10 µM for every item?
1. O=C(NCc1cccc(F)c1)c1cccc(C(=O)N2CCCC2)n1
2. Cc1cnc(N2CCC3(CC2)CN(c2ccsc2)C(=O)CO3)nc1
3. Cc1nn(CCC#N)c(C)c1CCC(=O)N(C)Cc1ccsc1
4. COCC1CN(C(=O)Nc2cc(-n3cccc3)ccc2F)CCO1 (centres undefined)

5.79
7.34
-3.57
3.61

Hey, can you go through the list below and give me cytotoxicity at 10 µM for every item?
1. CS(=O)(=O)N1CCC2(CC1)COC(COc1ccccn1)C2 (centres undefined)
2. O=C(C1CCOCC1)N1CCC(OCc2cccnc2)CC1
3. COc1cc(OC)cc(C(=O)NCCCNc2ncccn2)c1
4. c1cnn(CC2CN(CC3CCCC3)CCO2)c1 (centres undefined)
5. O=C(NCCc1nnc2n1CCC2)N(Cc1ccco1)C1CCCC1
6. COCCNC(=O)Cn1c(-c2ccco2)cc2cccnc21

5.63
2.12
-11.1
-2.55
5.04
-5.09

Hey, can you go through the list below and give me cytotoxicity at 10 µM for every item?
1. CCN(C)Cc1cccc(CNC(=O)CSCc2ccccn2)c1
2. CC(C)(O)CN1CCN(C(=O)c2cc3ccccc3c(=O)[nH]2)CC1
3. O=S1(=O)C[C@@H]2[C@H](C1)N(Cc1ccoc1)CCN2Cc1ccncc1
4. Cc1noc(C2CCN(Cn3cc(Cl)cn3)CC2)n1
5. Cn1ccnc1CN1CCCN(C(=O)c2ccc3cc[nH]c3c2)CC1
6. Cn1cc(CN2CCC3(CCN(c4cnn(C)c4)C3=O)C2)cn1 (centres undefined)
7. CS(=O)(=O)Nc1ccn(Cc2ccc(Br)cc2)n1

[1.61, 1.52, -0.452, -11.1, -6.44, -83.4, 10.9]

Hey, can you go through the list below and give me cytotoxicity at 10 µM for every item?
1. O=C(NC[C@H]1OC[C@@H](NC(=O)C2CCCC2)[C@@H]1O)c1ccncc1
2. CC(O)CN1CCC(CNCc2cccc(Cl)c2)CC1 (centres undefined)
3. CC(C)NC(=O)N1CCc2nc(C(=O)NCc3ccccc3)sc2CC1
4. CN(C)CCOCC1CN(C(=O)c2cccnc2)Cc2ccnn2C1 (centres undefined)
5. CCOCCN1CCN(Cc2nnc(-c3ccco3)o2)CC1
6. Cc1ccccc1-n1cc(C2=CCN(CCn3cc[nH]c3=O)CC2)cn1

1. 5.45
2. -23.8
3. 4.17
4. 5.57
5. -53.1
6. 16.5

---

Assay: Toxicity liver stage against HepG2, at 10uM
Type: cell-based
Set-up: test concentration 10 uM, cell line HepG2-A16-CD81EGFP
Details: human, HepG2-A16-CD81EGFP cells; read-out: INHIBITION
QUANTITY: cytotoxicity at 10 µM (%)
Give bare numbers, in %.

[[record]]
molecule = "CCc1nc2n(n1)CC(NCc1nc(-c3cccnc3)no1)CC2 (stereo unspecified)"
quantity = "cytotoxicity at 10 µM"
test_value = -8.66

[[record]]
molecule = "O=C1CCNc2ncc(-c3ccccc3Cl)cc2CN1C1CC1"
quantity = "cytotoxicity at 10 µM"
test_value = 8.89

[[record]]
molecule = "Cc1nc2ccccc2nc1NCc1cccc(OCC2CCCO2)c1 (stereo unspecified)"
quantity = "cytotoxicity at 10 µM"
test_value = 44.3

[[record]]
molecule = "COc1no[n+]([O-])c1-c1ccccc1"
quantity = "cytotoxicity at 10 µM"
test_value = 8.2

[[record]]
molecule = "CSC(C)(C)CNC(=O)NCC[S+]([O-])c1ccccc1F (stereo unspecified)"
quantity = "cytotoxicity at 10 µM"
test_value = -11.6


Assign cytotoxicity at 10 µM to the following record: Cc1c[nH]nc1C1CCN(c2cnccn2)C1 (stereo unspecified)
5.3

---

Assay: Toxicity liver stage against HepG2, at 10uM
Format: cell-based
Design: test concentration 10 uM, cell line HepG2-A16-CD81EGFP
Conditions: human, HepG2-A16-CD81EGFP cells; read-out: INHIBITION
I'd appreciate it if you could supply cytotoxicity at 10 µM values for the items below.
Include the unit after the number when you answer.

[[record]]
compound = "CN(C)C(=O)CCC[S+]([O-])Cc1ccc(F)c(F)c1 (stereo unspecified)"
test_value = "12.2%"

[[record]]
compound = "CCN(C(=O)CCOC)C(c1ccc(Cl)cc1)c1ccccn1 (stereo unspecified)"
test_value = "1.88%"

[[record]]
compound = "COc1cccc(C2CCN(c3ccc4cc[nH]c4n3)C2)c1OC (stereo unspecified)"
test_value = "50.2%"

[[record]]
compound = "COc1ccc(CC(=O)Nc2ccc3ncn(C)c(=O)c3c2)cc1"
test_value = "1.29%"

[[record]]
compound = "CCN1CCC(NC(=O)CN2CCc3c(ncn3C)C2)CC1"
test_value = "1.85%"


Hey, can you go through the list below and give me cytotoxicity at 10 µM for every item?
1. CN1CCc2[nH]nc(C(=O)N3CCCC4(CC3)CNC(=O)O4)c2C1 (stereo unspecified)
2. CCCS(=O)(=O)N1CCN(c2cc(-n3cnc(C)c3C)ncn2)CC1
3. Cc1ncccc1NC(=O)[C@@H]1C[C@@H]2CCN(Cc3cccs3)C[C@H]2O1
4. CSC(C)C(=O)NS(=O)(=O)CCc1ccccc1 (stereo unspecified)
5. CC1COCCN1Cc1nc(Cc2ccccc2)no1 (stereo unspecified)
6. CN(Cc1cccnc1)C1CCCN(Cc2noc(C3CC3)n2)C1 (stereo unspecified)

1: -44.6%; 2: 5.54%; 3: -72.9%; 4: 2.88%; 5: 5.17%; 6: -4.95%
